tested on: Botryosphaeria berengeriana; assay: Antifungal activity against Physalospora piricola at 50 ug/ml; type: functional
inhibition at 50 µg/mL listing for selected compounds.
metric: inhibition at 50 µg/mL (%)

[[record]]
compound = "CO/N=C(/C(=O)OC)c1ccccc1CSc1nnc(-c2cccc(Cl)c2)o1"
metric = "inhibition at 50 µg/mL"
reported = 92.6

[[record]]
compound = "CO/N=C(/C(=O)OC)c1ccccc1CSc1nnc(-c2ccc(OCc3ccccc3)cc2)o1"
metric = "inhibition at 50 µg/mL"
reported = 96.9

[[record]]
compound = "CO/N=C(/C(=O)OC)c1ccccc1CSc1nnc(-c2ccc([N+](=O)[O-])cc2)o1"
metric = "inhibition at 50 µg/mL"
reported = 96.3

[[record]]
compound = "CO/N=C(/C(=O)OC)c1ccccc1CSc1nnc(-c2ccc(OC)cc2)o1"
metric = "inhibition at 50 µg/mL"
reported = 93.8

[[record]]
compound = "CO/N=C(/C(=O)OC)c1ccccc1CSc1nnc(-c2ccccc2)o1"
metric = "inhibition at 50 µg/mL"
reported = 94.9

[[record]]
compound = "CO/N=C(/C(=O)OC)c1ccccc1CSc1nnc(-c2ccc(F)cc2)o1"
metric = "inhibition at 50 µg/mL"
reported = 100

[[record]]
compound = "CO/N=C(/C(=O)OC)c1ccccc1COc1ccccc1C [KRESOXIM-METHYL]"
metric = "inhibition at 50 µg/mL"
reported = 98.5

[[record]]
compound = "CO/N=C(/C(=O)OC)c1ccccc1CSc1nnc(-c2ccccc2I)o1"
metric = "inhibition at 50 µg/mL"
reported = 96.3

[[record]]
compound = "CO/N=C(/C(=O)OC)c1ccccc1CSc1nnc(-c2ccccc2F)o1"
metric = "inhibition at 50 µg/mL"
reported = 100

[[record]]
compound = "CO/N=C(/C(=O)OC)c1ccccc1CSc1nnc(-c2ccc(C(F)(F)F)cc2)o1"
metric = "inhibition at 50 µg/mL"
reported = 100


* * *

system: Botryosphaeria berengeriana; assay: Antifungal activity against Physalospora piricola at 50 ug/ml; assay type: functional
metric: inhibition at 50 µg/mL (%)

[[record]]
smiles = "CO/N=C(/C(=O)OC)c1ccccc1CSc1nnc(-c2cc(Cl)ccc2Cl)o1"
u = "%"
reported = 100

[[record]]
smiles = "CO/N=C(/C(=O)OC)c1ccccc1CSc1nnc(-c2cc(F)c(Cl)cc2Cl)o1"
u = "%"
reported = 100

[[record]]
smiles = "CO/N=C(/C(=O)OC)c1ccccc1CSc1nnc(-c2ccc(Br)cc2F)o1"
u = "%"
reported = 100

[[record]]
smiles = "CO/N=C(/C(=O)OC)c1ccccc1CSc1nnc(-c2cccc(Cl)c2Cl)o1"
u = "%"
reported = 96.7

[[record]]
smiles = "CO/N=C(/C(=O)OC)c1ccccc1CSc1nnc(-c2cccc(F)c2F)o1"
u = "%"
reported = 100

[[record]]
smiles = "CO/N=C(/C(=O)OC)c1ccccc1CSc1nnc(-c2ccc(Cl)cc2Cl)o1"
u = "%"
reported = 88.9


* * *

tested on: Thanatephorus cucumeris; assay: Antifungal activity against Rhizoctonia solani at 50 ug/ml; type: functional
Please use yes whenever inhibition at 50 µg/mL is not below 90%, and no whenever it is.

[[record]]
smiles = "CO/N=C(/C(=O)OC)c1ccccc1CSc1nnc(-c2ccc([N+](=O)[O-])cc2)o1"
group = "no"

[[record]]
smiles = "CO/N=C(/C(=O)OC)c1ccccc1CSc1nnc(-c2cccc(F)c2F)o1"
group = "yes"

[[record]]
smiles = "CO/N=C(/C(=O)OC)c1ccccc1CSc1nnc(-c2ccc(Br)cc2F)o1"
group = "yes"

[[record]]
smiles = "CO/N=C(/C(=O)OC)c1ccccc1CSc1nnc(-c2cc(Cl)ccc2Cl)o1"
group = "yes"

[[record]]
smiles = "CO/N=C(/C(=O)OC)c1ccccc1COc1ccccc1C"
group = "no"

